# System: Hep3B2.1-7 human hepatoma carcinoma cells
# method.summary: Tumor cell inhibition ratio, CCK-8 kit, Hep3B
# particulars: read-out: Antiproliferative effect (inhibition ratio) Hep3B
Recorded inhibition at 10 µM for the following compounds

| compound | unit.label | inhibition at 10 µM |
| --- | --- | --- |
| COCCOc1cc2c(cc1OCCOC)C1=Nc3cccc(C(F)(F)F)c3CN1C=N2 [Compound V-9] | % | 40.1 |
| COCCOc1cc2c(cc1OCCOC)C1=Nc3cc(CO)cc(N)c3CN1C=N2 [Compound V-21] | % | 21.8 |
| COCCOc1cc2c(cc1OCCOC)C1=Nc3cc(COS(C)(=O)=O)cc([N+](=O)[O-])c3CN1C=N2.Cl [Compound V-20, hydrochloride] | % | 60.7 |
| COc1cc2c(cc1OCCCN1CCOCC1)C1=Nc3cccc(C#N)c3CN1C=N2 [Compound V-27] | % | 2.44 |

====

# assay.system: aurora kinase B (Homo sapiens, UniProt Q96GD4)
# Construct: purchased Invitrogen PV3174
# Sequence (Q96GD4 whole entry): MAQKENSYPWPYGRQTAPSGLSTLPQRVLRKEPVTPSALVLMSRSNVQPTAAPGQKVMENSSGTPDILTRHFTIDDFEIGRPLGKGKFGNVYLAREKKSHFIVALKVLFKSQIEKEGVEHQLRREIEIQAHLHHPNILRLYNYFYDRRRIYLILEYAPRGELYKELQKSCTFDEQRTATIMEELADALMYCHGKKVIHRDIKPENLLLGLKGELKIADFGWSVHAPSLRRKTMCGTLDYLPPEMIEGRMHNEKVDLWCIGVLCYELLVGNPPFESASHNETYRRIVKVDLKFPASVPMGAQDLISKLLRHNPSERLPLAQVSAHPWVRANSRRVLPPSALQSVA
# method.summary: Aurora kinase B inhibition in vitro (Invitrogen aurora kinase screening kit PV3174)
# Type: biochemical
# particulars: 40 μM
measured.attribute: The inhibition ratio of the compound on Aurora B(%)

| compound | assay.system | unit.label | data.value |
| --- | --- | --- | --- |
| Cc1cc(Nc2cc(N3CCN(C)CC3)nc(Sc3ccc(NC(=O)C4CC4)cc3)n2)n[nH]1 [VX-680, reference compound] | aurora kinase B (Homo sapiens, UniProt Q96GD4) | % | 35.2 |
| COc1cc2c(cc1OCCCN1CCOCC1)C1=Nc3cc(Cl)ccc3CN1C=N2 [Compound V-28] | aurora kinase B (Homo sapiens, UniProt Q96GD4) | % | 45.2 |
| C#Cc1cccc2c1CN1C=Nc3cc(OCCOC)c(OCCOC)cc3C1=N2.Cl [Compound V-4] | aurora kinase B (Homo sapiens, UniProt Q96GD4) | % | 38.7 |

====

# assay.system: EGFR tyrosine kinase (Homo sapiens, UniProt P00533)
# Sequence (P00533 25-1210): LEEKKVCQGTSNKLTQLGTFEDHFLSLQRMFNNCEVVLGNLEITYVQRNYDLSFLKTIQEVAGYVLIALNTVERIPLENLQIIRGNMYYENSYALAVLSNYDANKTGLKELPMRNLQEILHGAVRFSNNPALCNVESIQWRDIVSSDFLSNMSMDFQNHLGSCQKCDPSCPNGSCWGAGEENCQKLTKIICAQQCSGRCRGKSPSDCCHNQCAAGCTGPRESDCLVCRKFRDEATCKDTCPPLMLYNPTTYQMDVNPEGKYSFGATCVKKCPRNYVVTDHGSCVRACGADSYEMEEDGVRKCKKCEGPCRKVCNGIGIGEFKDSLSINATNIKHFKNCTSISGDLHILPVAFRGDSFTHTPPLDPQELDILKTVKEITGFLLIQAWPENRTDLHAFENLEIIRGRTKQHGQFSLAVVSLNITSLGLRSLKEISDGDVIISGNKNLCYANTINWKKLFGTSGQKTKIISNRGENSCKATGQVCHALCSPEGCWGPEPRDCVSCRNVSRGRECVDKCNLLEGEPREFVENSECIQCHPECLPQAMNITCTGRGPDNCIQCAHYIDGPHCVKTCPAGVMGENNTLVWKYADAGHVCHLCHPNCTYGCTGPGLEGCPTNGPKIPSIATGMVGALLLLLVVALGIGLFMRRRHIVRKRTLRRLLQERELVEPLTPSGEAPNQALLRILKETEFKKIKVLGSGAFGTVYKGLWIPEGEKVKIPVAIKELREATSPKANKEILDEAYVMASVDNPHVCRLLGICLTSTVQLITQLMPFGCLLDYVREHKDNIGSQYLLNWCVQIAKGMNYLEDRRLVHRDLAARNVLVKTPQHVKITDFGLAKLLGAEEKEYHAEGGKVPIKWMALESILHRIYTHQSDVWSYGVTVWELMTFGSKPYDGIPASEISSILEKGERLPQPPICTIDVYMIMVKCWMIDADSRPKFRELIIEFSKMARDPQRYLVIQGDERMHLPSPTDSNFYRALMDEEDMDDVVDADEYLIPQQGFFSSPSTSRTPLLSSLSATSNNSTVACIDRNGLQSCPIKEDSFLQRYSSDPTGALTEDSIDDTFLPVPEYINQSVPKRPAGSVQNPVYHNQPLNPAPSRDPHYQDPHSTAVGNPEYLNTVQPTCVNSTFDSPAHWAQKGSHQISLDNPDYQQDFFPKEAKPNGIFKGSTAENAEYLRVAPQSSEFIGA
# method.summary: EGFR tyrosine kinase inhibition in vitro (Invitrogen EGFR inhibitor screening kit PV3193)
# particulars: 200 μM
Recorded The inhibition ratio of the compound on EGFR(%) for the following compounds
measured.attribute: The inhibition ratio of the compound on EGFR(%)

| compound | data.value |
| --- | --- |
| COc1cc2c(cc1OC)C1=Nc3ccc(F)c(Cl)c3CN1C=N2 [Compound V-30] | 82.1 |
| COCCOc1cc2c(cc1OCCOC)C1=Nc3cccc(NC(=O)c4ccccc4)c3CN1C=N2 [Compound V-12] | 62.7 |
| COCCOc1cc2c(cc1OCCOC)C1=Nc3ccc(F)c(Cl)c3CN1C=N2 [Compound V-13] | 88.9 |
| COCCOc1cc2c(cc1OCCOC)C1=Nc3cccc(C(F)(F)F)c3CN1C=N2 [Compound V-9] | 60.3 |
| CS(=O)(=O)CCNCc1ccc(-c2ccc3c(c2)C2=Nc4cc(Cl)ccc4CN2C=N3)o1 [Compound V-36] | 87.9 |
| COCCOc1cc2c(cc1OCCOC)C1=Nc3ccc(OCc4cccc(F)c4)c(Cl)c3CN1C=N2 [Compound V-14] | 87.9 |
| COCCOc1cc2c(cc1OCCOC)C1=Nc3cc(Cl)ccc3CN1C=N2 [Compound V-15] | 94.0 |
| C#Cc1cccc2c1CN1C=Nc3ccc(-c4ccc(CNCCS(C)(=O)=O)o4)cc3C1=N2 [Compound V-35] | 75.8 |
| COc1cc2c(cc1OCCCN1CCCC1)C1=Nc3cccc(Cl)c3CN1C=N2 [Compound V-24] | 94.3 |
| COCCOc1cc2c(cc1OCCOC)C1=Nc3cccc(O)c3CN1C=N2 [Compound V-8] | 95.6 |
| COCCOc1cc2c(cc1OCCOC)C1=Nc3cc(O)ccc3CN1C=N2 [Compound V-18] | 78.8 |
| COCCOc1cc2c(cc1OCCOC)C1=Nc3cccc([N+](=O)[O-])c3CN1C=N2 [Compound V-5] | 74.6 |
| COCCOc1cc2c(cc1OCCOC)C1=Nc3cc(C#N)ccc3CN1C=N2 [Compound V-17] | 70.6 |
| COCCOc1cc2c(cc1OCCOC)C1=Nc3cc(F)ccc3CN1C=N2 [Compound V-16] | 80.1 |
| COCCOc1cc2c(cc1OCCOC)C1=Nc3cc(COS(C)(=O)=O)cc([N+](=O)[O-])c3CN1C=N2.Cl [Compound V-20] | 98.4 |
| C#Cc1cccc2c1CN1C=Nc3cc(OCCOC)c(OCCOC)cc3C1=N2.Cl [Compound V-4] | 93.2 |
| CS(=O)(=O)CCNCc1ccc(-c2ccc3c(c2)C2=Nc4ccc(OCc5cccc(F)c5)c(Cl)c4CN2C=N3)o1 [Compound V-33] | 97.9 |
